- Test system: Mycobacterium tuberculosis
- Test description: Antibacterial activity against Mycobacterium tuberculosis H37Rv harboring pSMT1 encoding Vibrio harveyi luxAB gene at 10 uM after 7 days by luminometric analysis
- Type: functional
- Reported conditions: 168 h, read-out: GI
Measured parameter: inhibition of growth at 10 µM (%)
Express your answer in %, writing the number without its unit.

INSERT INTO assay_data (compound_structure, measure_unit, readout_value) VALUES
  ('O=[N+]([O-])c1ccc(N2CCN(c3ccc([N+](=O)[O-])cc3)CC2)cc1', '%', 13),
  ('CCCCCCNC(=N)c1ccc(N2CCN(c3ccccc3)CC2)cc1.Cl', '%', 99);

# compound CCC(CC)NC(=N)c1ccc(NCCNc2ccccc2)cc1 ; its inhibition of growth at 10 µM = 63
